The reported numbers originate from a melting point compilation (Tetko et al.; mined from patent text by program, amines drawn as free bases though some values may be those of a salt).

melting point by entry:

Please review the following examples before continuing.
molecule=C#CCOc1ccc2c(c1)c(-c1ccc(C(C)C)cc1)nc(=O)n2Cc1cccc(OC(C)(C)C)n1 reported_result="62 to 65 °C"
molecule=Fc1cccc(CCc2nnc(-c3ccnc4[nH]ccc34)o2)c1 reported_result="147 to 148 °C"
molecule=Clc1ccc(-c2nc(-n3cncn3)oc2CCC2=NCCO2)cc1 reported_result="132 to 133 °C"
molecule=COC(=O)c1cc(OC)cc(-c2ccc(NC(C)=O)cc2)n1 reported_result="223 to 224 °C"
molecule=COc1ccc(S(=O)(=O)Nc2cccnc2Nc2ccc(C)cc2)cc1 reported_result="188 to 189 °C"

Quick one: melting point of `COc1ccc(-c2cnnc(-c3ccc(C(F)(F)F)cc3F)c2N)cc1` ?
215 to 216 °C

Also `CC(C)(C)c1cc(-c2c[nH]c(=O)[nH]2)cc(C(C)(C)C)c1O` , if possible.
> 260 °C

Also NC(=O)NCc1ccc2c(c1)CN(C1CCC(=O)NC1=O)C2=O (stereo not given) , if possible.
224 to 226 °C

Also `CSC(=CC(=O)C(F)(F)F)NCc1ccc(Cl)nc1` , if possible.
112 °C

Also `O=C(O)Cc1ccc2onc(-c3ccc(Cl)cc3)c2c1` , if possible.
189 °C

Also C=CCON=C(CC)C1=C(O)CC(c2c(C)c(C)c3c(c2C)CC(C)(CC)C3)CC1=O (stereo not given) , if possible.
64 to 65 °C

Also `CCC(=O)c1cc(C#N)c(=O)[nH]c1CC` , if possible.
243 to 245 °C

Also `O=C1CN2C(=N1)NCc1c(Cl)cccc12` , if possible.
127 to 129 °C

Also `CCn1c(C)nc(N2CCc3ccccc3CC2)c([N+](=O)[O-])c1=O` , if possible.
145 to 147 °C

Also `COC(=O)C(C)=Cc1cc(N)ccc1Cl` , if possible.
80 °C

Also `Cc1ccc2c(c1)C=Cc1cc(C)ccc1C2c1cn(-c2ccnc(N(C)CC(=O)Nc3nc(CC(=O)O)cs3)n2)c(=O)[nH]c1=O` , if possible.
210 °C

Also CNC(=O)C1CN(CCCC(c2ccc(F)cc2)c2ccc(F)cc2)CCN1CC(=O)Nc1c(C)cc(N)cc1C (stereo not given) , if possible.
112 °C

Also `N#Cc1cc(Cl)nc(SCc2ccc3ccccc3c2)n1` , if possible.
120 to 121 °C

Also `COc1ccc(C(=O)c2cc(Br)ccc2N)cc1` , if possible.
120 °C

Also `Cc1oc(-c2ccccc2)nc1COc1ccc(COc2ncccc2CC(=O)O)cc1` , if possible.
144 to 145 °C

----------
measurement-name: melting point

Please review the following examples before continuing.
compound=Cc1nc2c(/C=C/c3ccccc3)cccn2c1C measurement_name="melting point" reported_result="240 to 255 °C"
compound="CC1CC(=O)c2c(C(=O)Nc3cccnc3)c[nH]c2C1 (stereo not given)" measurement_name="melting point" reported_result="225 to 227 °C"
compound="CC(Cc1c[nH]c2ccccc12)NC(=O)NCC1CCC(c2ccccc2)(N(C)C)CC1 (stereo not given)" measurement_name="melting point" reported_result="140 to 146 °C"
compound=CC(C)c1nc(-c2ncn3c2C(C)(C)N(C(=O)N2CCCC2)c2cc(F)ccc2-3)no1 measurement_name="melting point" reported_result="154 to 156 °C"
compound=CCCNC(=O)c1cnc2ccc(C)cn2c1=O measurement_name="melting point" reported_result="126 to 128 °C"
compound="COc1ccc(C(=O)CC2CSCCC2=O)cc1 (stereo not given)" measurement_name="melting point" reported_result="123 to 125 °C"
compound="O=C(O)c1ccc(OCCNC(=O)C2Cc3ccccc3N2S(=O)(=O)c2ccc(-c3cccc(C(F)(F)F)c3)cc2)c(Cl)c1 (stereo not given)" measurement_name="melting point" reported_result="135 to 140 °C"
compound="CC(C)(C)c1ccc(NC(=O)NCc2ccc3c(c2)CN(C2CCC(=O)NC2=O)C3=O)cc1 (stereo not given)" measurement_name="melting point" reported_result="254 to 256 °C"

Quick one: melting point of `CC[C@@H](CO)Nc1nc(-c2ccc(Br)cc2)cs1` ?
91 to 93 °C

Also `COc1cc(COc2nn(C)cc2C(N)=O)ccc1OCc1nc(-c2ccccc2)oc1C` , if possible.
168 to 169 °C

----------
Residues, ends and D or L forms follow the SMILES beside them. *: point of attachment. Cbz = O=C(OCc1ccccc1)*
melting point by entry:

Please review the following examples before continuing.
molecule=N#Cc1cnc2c(sc3ccc([N+](=O)[O-])cc32)c1O measurement_name="melting point" reported_result="> 305 °C"
molecule="CN1C(=O)CCCc2cc(Nc3ncc(Cl)c(NC4CCCCC4C(N)=O)n3)ccc21 (centres undefined)" measurement_name="melting point" reported_result="251 to 253 °C"
molecule=N#CC=Cc1ccc(C=Cc2ccc(C=CC#N)cc2)cc1 measurement_name="melting point" reported_result="219 to 221 °C"
molecule=Cc1noc(NS(=O)(=O)c2ccccc2-c2ccc(-c3ncco3)cc2CN(C)C(=O)c2ccccc2Cl)c1C measurement_name="melting point" reported_result="125 to 135 °C"
molecule="CCOC(=O)C1(C)C=C(O)c2c(sc3c2CCC2(C3)OCCO2)N1 (centres undefined)" measurement_name="melting point" reported_result="94 to 95 °C"
molecule=O=C(Nc1ccc(Cl)cc1)Nn1cnc2c(O)cccc2c1=O measurement_name="melting point" reported_result="266 to 268 °C"
molecule=N#Cc1cc(C#N)cc(OC(C(=O)C2CC2)C(=O)C2CC2)c1 measurement_name="melting point" reported_result="135 to 137 °C"
molecule="CC(=O)NCC1CN(c2ccc(N3CCC(=C(C)C#N)C(F)C3)c(F)c2)C(=O)O1 (centres undefined)" measurement_name="melting point" reported_result="148 to 150 °C"
molecule="COc1ccccc1[C@H](c1cccc2ccccc12)[C@@](C)(C#N)C(=O)N1CCC(C2CCCC(C(F)(F)F)C2)CC1 (some centres undefined)" measurement_name="melting point" reported_result="160 to 165 °C"
molecule=N#CCCOC(=O)NC(=O)C(c1ccccc1)c1ccccc1 measurement_name="melting point" reported_result="113 °C"

Turning to the following molecule.
Quick one: melting point of COC(=O)C(CC(C)C)NC(=O)C(CC(N)=O)NC(=O)OCc1ccccc1 (stereo not drawn) (Cbz-Asn-Leu-OMe; configuration not given here) ?
191 to 193 °C

----------
melting point by entry:

Please review the following examples before continuing.
compound=CC(C)(C)c1cc(C=C2SC(NC#N)=NC2=O)cc(C(C)(C)C)c1O reported_result="240 to 242 °C"
compound=O=c1c2ccccc2ncn1CCN1CCC(Nc2nc3ccccc3n2Cc2ccc(F)cc2)CC1 reported_result="191 °C"
compound=Cc1nc(N2CCN(CC3CCCC3)C2=O)sc1C(=O)NCc1cccnc1 reported_result="142 to 143 °C"

Quick one: melting point of `COc1ccccc1C(=O)NS(=O)(=O)c1ccc(N)cc1` ?
180 to 182 °C

Also COc1ccc(-c2nc(C)n(CCC(C)(C)NCC(O)c3ccc(O)c(CO)c3)n2)cc1 (stereo not given) , if possible.
110 to 116 °C

----------
melting point by entry:

Please review the following examples before continuing.
compound=CCCCn1c(=O)c2c(ncn2S(=O)(=O)c2cccs2)n(CCCC)c1=O measurement_name="melting point" reported_result="145 to 146 °C"
compound=CC1(C)OC(=O)Nc2ccc(-c3cccc(C#N)c3F)cc21 measurement_name="melting point" reported_result="192 to 198 °C"
compound=O=C1NCc2cc(C(=O)c3ccccc3)ccc2N1 measurement_name="melting point" reported_result="265 °C"

Quick one: melting point of `COc1cc2ncnc(N3CCc4cc(C)ccc43)c2cc1OC` ?
180 to 181 °C

Also CC(=O)N(O)C(C)c1ccc2c(c1)oc1ccccc12 (centres undefined) , if possible.
132 to 135 °C

Also O=C1CN2CCOC2(c2ccccc2F)c2cc(Cl)ccc2N1CCO (centres undefined) , if possible.
141 to 146 °C

Also `N#CCc1c(Cl)cccc1Br` , if possible.
82 to 84 °C

Also CS(=O)(=O)N(Cc1ccccc1)c1ccc(C2CO2)cc1 (centres undefined) , if possible.
89 to 92 °C

Also `Cc1cc(CCC(=O)O)nc(-c2nc(=O)c3ccc(Cl)cc3s2)c1` , if possible.
232 to 233 °C

----------
measurement-name: melting point

Please review the following examples before continuing.
molecule=O=C(c1cc(C2CCCCC2)ccn1)N(O)Cc1ccccc1 reported_result="106 to 110 °C"
molecule=O=C(O)c1cc(Cl)ccc1C(O)=NCc1ccccc1 reported_result="117 to 119 °C"
molecule=CC(=O)NC(=S)c1nc2cc(Cl)c(Cl)cc2n1S(=O)(=O)N(C)C reported_result="172 to 173 °C"
molecule=Cc1c(Cc2ccccc2)c(=O)n(Cc2ccc(F)cc2)c2cc(OCc3nnn[nH]3)cc(OCc3nnn[nH]3)c12 reported_result="126 to 132 °C"
molecule=Cn1cc(CO)c(=O)c2cc(F)ccc21 reported_result="209 to 212 °C"

Quick one: melting point of `CNC(=O)c1cc(-c2ccc(OC)cc2)nn(CC(=O)NCc2ccccn2)c1=O` ?
195 to 196 °C

Also `CCOC(=O)c1nc(NC)sc1-c1nc2ccccn2c1C` , if possible.
183 to 185 °C

Also Cc1ccc(F)cc1C1CC(=O)c2c(C)cnnc2C1 (stereo not given) , if possible.
127 to 128 °C

Also `CCN(CCOc1ccc(Cl)c2[nH]cc(Cl)c12)c1ccsc1` , if possible.
123 to 125 °C

Also `CCOC(=O)c1nc2scc(COC(=O)c3ccc(CO)cc3)c2c(=O)[nH]1` , if possible.
196 °C
